# TESTED_TARGET: Beta-adrenoceptor (Rattus norvegicus, UniProt P18090)
# Sequence (P18090 whole entry): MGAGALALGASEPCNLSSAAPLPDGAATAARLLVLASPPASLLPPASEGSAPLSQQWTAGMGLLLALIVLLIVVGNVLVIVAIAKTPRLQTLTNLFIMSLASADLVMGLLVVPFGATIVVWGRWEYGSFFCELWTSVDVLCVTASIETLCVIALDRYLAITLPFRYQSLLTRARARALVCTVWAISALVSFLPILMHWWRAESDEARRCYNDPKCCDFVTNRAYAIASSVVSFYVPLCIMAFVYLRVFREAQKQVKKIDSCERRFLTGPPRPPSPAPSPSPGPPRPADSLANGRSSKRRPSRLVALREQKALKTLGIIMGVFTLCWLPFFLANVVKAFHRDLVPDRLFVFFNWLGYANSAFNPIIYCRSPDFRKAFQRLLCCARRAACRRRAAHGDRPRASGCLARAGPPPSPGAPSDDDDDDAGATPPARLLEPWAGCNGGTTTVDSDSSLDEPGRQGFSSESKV
# METHOD_SUMMARY: Intrinsic sympathomimetic activity (ISA) in reserpinized rats
# Format: in vivo, male Wistar rats
# Design: The rats were anesthetized with pentobarbital sodium; from tissue; host or cells: heart in the living anesthetized male Wistar rat (reserpine-pretreated, vagotomized)
# EXPERIMENTAL_SETUP: reserpine-pretreated rats, iv
# Experimental: The rats were pretreated with reserpine (8 mg/kg ip), 18 hr before experiments. […] The heart rate was measured with a cardiotachometer triggered by the QRS of the ECG (lead II) and recorded on a polygraph. After the Control response to isoproterenol at a dose of 0.1 μg/kg iv was obtained, the test compound was injected iv in increasing doses at 20 min intervals. In this series of experiments, intrinsic sympathomimetic activity (ISA) was also evaluated.
ASSAY_METRIC: ISA (increase in HR)

- COC(=O)C1=C(C)NC(C)=C(C(=O)OCCCCCCNCC(O)COc2ccccc2)C1c1cccc(C)c1.Cl (stereo not shown) [Example 48]: -
- COC(=O)C1=C(C)NC(C)=C(C(=O)OCCCCCCNCC(O)COc2ccccc2C#N)C1c1cccc([N+](=O)[O-])c1.Cl (stereo not shown) [Example 30]: -

---

# TESTED_TARGET: Beta-adrenoceptor (Rattus norvegicus, UniProt P18090)
# METHOD_SUMMARY: Beta-adrenoceptor blocking effect in reserpinized rats (isoproterenol chronotropy)
# Format: in vivo, male Wistar rats
# Set-up: The rats were anesthetized with pentobarbital sodium; from tissue; host or cells: heart in the living anesthetized male Wistar rat (reserpine-pretreated, vagotomized)
# EXPERIMENTAL_SETUP: isoproterenol 0.1 μg/kg iv, cumulative iv doses, read-out: Beta-Blocking ED50 (50% blockade of positive chronotropic response to isoproterenol)
Where a name gives a salt, the structure may show the parent alone.
Mark rule met only for ED50 values smaller than 0.7 mg/kg; exact matches and larger values are rule not met.

Below, 5 compounds whose answers are already recorded.
- COC(=O)C1=C(C)NC(C)=C(C(=O)OCCCCCCNCC(O)COc2ccccc2Cl)C1c1cccc([N+](=O)[O-])c1 (stereo not shown) [Example 32, hydrochloride]: rule not met
- CCOC(=O)C1=C(C)NC(C)=C(C(=O)OCCCCCCNCC(O)COc2ccccc2)C1c1cccc([N+](=O)[O-])c1 (stereo not shown): rule not met
- COC(=O)C1=C(C)NC(C)=C(C(=O)OCCCCCCNCC(O)COc2ccccc2)C1c1cccc([N+](=O)[O-])c1.Cl (stereo not shown): rule met
- COC(=O)C1=C(C)NC(C)=C(C(=O)OCCCCCCNCC(O)COc2ccccc2)C1c1cccc(C(F)(F)F)c1 (stereo not shown): rule not met
- COC(=O)C1=C(C)NC(C)=C(C(=O)OCCCCNCC(O)COc2ccccc2)C1c1cccc([N+](=O)[O-])c1.Cl (stereo not shown): rule met

# input for lookup
Is ED50 of CC1=C(C(=O)OCCCCCCNCC(O)COc2ccccc2)C(c2cccc([N+](=O)[O-])c2)C(C(=O)OC(C)(C)C)=C(C)N1.Cl (stereo not shown) strictly below 0.7 mg/kg?
rule not met
